test_summary: NCI Yeast Anticancer Drug Screen. Data for the mec2-1 strain (AID 157)
condition_label: S. cerevisiae mec2-1 strain, at 50.0 µM
The panel holds about 79,000 compounds, 15% with a hit somewhere; the sample as a whole holds those more often. The source made the active and inactive calls. Rule as the data show it: active = growth inhibition above about 70%; inactive = the rest.
Valid outcomes are listed here; reply with one: Y = active, N = inactive

Query :: Given `CCOC(=O)Cc1cc(=O)oc2c(CN3CCN(c4ccc(C)cc4)CC3)c(O)ccc12` , state the outcome it received in this test.
Result :: N

Query :: Recorded test call requested for `Nc1ccc2oc(=O)c3ccccc3c2c1`
Result :: N

Query :: Tell me the recorded outcome of this test for `COc1ccc(C(=O)OC(=O)c2ccc(OC)cc2)cc1` .
Result :: N

Query :: Call for entry CCOC1=C(c2ccccc2)Sc2ccc(C)cc2C1c1ccc(C)cc1 (configuration not stated) :
Result :: Y

Query :: What classification did `O=C(O)C1CC[N-]CC1.O=C(O)C1CC[N-]CC1.[Cl][Pt+2]([Cl])([Cl])[Cl]` end up with in this test?
Result :: Y

Query :: Test call for this molecule, please: `Fc1ccc(CSC(=S)Nc2ccc(Br)cc2)cc1`
Result :: Y

Query :: # lookup: test call for COC1OC2=CCC3C(=O)NC(=O)C3C2[C@H](OCc2ccccc2)C1OCc1ccccc1 (some centres not stated)
Result :: Y

Query :: Recorded call for C=C1CC2(OC1=O)C(=O)N(C)c1ccccc12 (configuration not stated) ?
Result :: Y

Query :: Status in this test for `Nc1ccc(S(=O)(=O)N2CCCc3ccccc32)cc1` ?
Result :: N

Query :: Tell me the recorded outcome of this test for OC1CC2OC2C1O (configuration not stated) .
Result :: N

Query :: Look up the recorded call for `CCOC(=O)/C(=C/c1ccccc1Br)P(=O)(OCC)OCC` in this test.
Result :: N

Query :: Record lookup: outcome of this test for `CCCCCCCCCCCC(=O)OCCN(CC)CC` ?
Result :: Y

meta.source: PubChem BioAssay (NCI)
